System: CAF#2 (primary prostate cancer-associated fibroblasts of iCAF-like type)
Test: drug sensitivity score (DSS2, normalised partial AUC of dose-response, 72 h CellTiter-Glo viability) (DSS (dimensionless)); higher = more sensitive (stronger growth inhibition / cytotoxicity); extreme values may be limits of the assay
endpointName: drug sensitivity score

| compound | drug sensitivity score |
| --- | --- |
| CC1(C)CNc2cc(NC(=O)c3cccnc3NCc3ccncc3)ccc21 [Motesanib] (tested concentration range 1-10000 nM) | 2.7 |

[Q] drug sensitivity score of CC(C)c1c(C(=O)Nc2ccccc2)c(-c2ccccc2)c(-c2ccc(F)cc2)n1CC[C@@H](O)C[C@@H](O)CC(=O)O [Atorvastatin] (tested concentration range 1-10000 nM) on CAF#2?
[A] 8.4

[Q] drug sensitivity score of COc1cc([C@@H]2c3cc4c(cc3[C@@H](O[C@@H]3O[C@@H]5CO[C@@H](c6cccs6)O[C@H]5[C@H](O)[C@H]3O)[C@H]3COC(=O)[C@H]23)OCO4)cc(OC)c1O [Teniposide] (tested concentration range 1-10000 nM) on CAF#2?
[A] 0

[Q] drug sensitivity score of CC(C)(C)c1cc(NC(=O)Nc2ccc(-c3cn4c(n3)sc3cc(OCCN5CCOCC5)ccc34)cc2)no1 [Quizartinib] (tested concentration range 0.1-1000 nM) on CAF#2?
[A] 2.3

[Q] drug sensitivity score of CCc1cncnc1N1CCN(Cc2nc3ccc(C(F)(F)F)cc3[nH]2)CC1 (tested concentration range 1-10000 nM) on CAF#2?
[A] 2.4

[Q] drug sensitivity score of COC(=O)c1ccc([C@H]2c3[nH]c4ccccc4c3C[C@H](C(=O)OC)N2C(=O)CCl)cc1 [RSL3] (tested concentration range 1-10000 nM) on CAF#2?
[A] 3

----------
Tested on: CAF#7 (primary prostate cancer-associated fibroblasts of myCAF-like type)
Experiment: drug sensitivity score (DSS2, normalised partial AUC of dose-response, 72 h CellTiter-Glo viability) (DSS (dimensionless)); higher = more sensitive (stronger growth inhibition / cytotoxicity); extreme values may be limits of the assay
Recorded drug sensitivity score values for a group of molecules are listed next.

| molecule | valueMeasured |
| --- | --- |
| COCCNCc1ccc(-c2cc3nccc(Oc4ccc(NC(=S)NC(=O)Cc5ccc(F)cc5)cc4F)c3s2)nc1 [Glesatinib] (tested concentration range 0.2-2500 nM) | 4.2 |
| Nc1nc(NC2CC2)cc(-c2cccc(Cl)c2Cl)n1 [TH588] (tested concentration range 2.5-25000 nM) | 0.5 |
| CC[C@H](CO)Nc1nc(NCc2ccccc2)c2ncn(C(C)C)c2n1 [Seliciclib] (tested concentration range 1-10000 nM) | 2.3 |
| N#CC(c1ccnc(OCc2ccc(CN3CCOCC3)cc2)n1)c1nc2ccccc2s1 (stereo not drawn) [Bentamapimod] (tested concentration range 1-10000 nM) | 0 |
| CNC(=O)c1ccccc1Nc1cc(Nc2ccc(N3CCOCC3)cc2OC)ncc1C(F)(F)F [VS-4718] (tested concentration range 1-10000 nM) | 12.4 |

[Q] Look at this molecule and give its reported drug sensitivity score. CN(C)Cc1c(C(=O)NCCOc2ccc(C(=O)NO)cc2)oc2ccccc12 [Abexinostat] (tested concentration range 1-10000 nM)
[A] 9

[Q] Look at this molecule and give its reported drug sensitivity score. Cc1ncc(-c2ccnc(Nc3ccc(S(C)(=O)=O)cc3)n2)n1C(C)C [AZD-5438] (tested concentration range 1-10000 nM)
[A] 5.6

[Q] Look at this molecule and give its reported drug sensitivity score. Nc1ccccc1NC(=O)c1ccc(CNc2nccc(-c3cccnc3)n2)cc1 [Mocetinostat] (tested concentration range 1-10000 nM)
[A] 9.4
